# target desc: T1, hu-M-IL1RAP construct, positions S21-T367 (extracellular domain of the membrane form of human IL1RAP) (human, UniProt Q9NPH3 21-367)
# T1 construct: Biotinylated when captured on the Biacore chip
# T1 sequence: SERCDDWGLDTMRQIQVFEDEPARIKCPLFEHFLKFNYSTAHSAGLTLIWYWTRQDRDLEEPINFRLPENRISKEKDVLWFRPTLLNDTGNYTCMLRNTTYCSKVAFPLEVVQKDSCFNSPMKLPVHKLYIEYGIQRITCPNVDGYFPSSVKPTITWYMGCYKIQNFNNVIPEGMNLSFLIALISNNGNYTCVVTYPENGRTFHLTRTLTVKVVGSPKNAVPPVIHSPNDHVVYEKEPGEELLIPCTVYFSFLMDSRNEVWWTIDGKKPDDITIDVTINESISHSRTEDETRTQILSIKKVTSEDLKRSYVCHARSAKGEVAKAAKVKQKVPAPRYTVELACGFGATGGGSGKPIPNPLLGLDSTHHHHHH
# protocol text: SPR, Fab against parent Fab
assay endpoint: Fold Improvement in KD @ 25° C. (fold)
One number for each entry, in fold.

binder	unit label	Fold Improvement in KD @ 25° C.
K15 Fab (VL T94V) (Fab, V domains shown, Fab with 8xHis tag) VH: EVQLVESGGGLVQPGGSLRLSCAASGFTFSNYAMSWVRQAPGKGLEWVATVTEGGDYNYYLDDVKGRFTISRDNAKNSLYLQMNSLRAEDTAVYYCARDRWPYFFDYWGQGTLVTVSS VL: DIQMTQSPSSLSASVGDRVTITCRASENIYSNLAWYQQKPGKSPKLLVYGAKNLADGVPSRFSGSGSGTDYTLTISSLQPEDFATYYCQHFWTVPRTFGGGTKVEIK	fold	2.81
H2 Fab (VH R96D) (Fab, V domains shown, Fab with 8xHis tag) VH: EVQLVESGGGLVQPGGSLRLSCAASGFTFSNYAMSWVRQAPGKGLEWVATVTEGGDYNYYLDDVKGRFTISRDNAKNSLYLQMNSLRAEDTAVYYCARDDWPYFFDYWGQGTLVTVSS VL: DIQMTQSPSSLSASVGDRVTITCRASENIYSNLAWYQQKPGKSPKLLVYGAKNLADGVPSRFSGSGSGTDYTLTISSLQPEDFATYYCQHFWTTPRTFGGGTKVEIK	fold	7.99

Could you now consider this next binder?
Reported Fold Improvement in KD @ 25° C. of K12 Fab (VL W92I) (Fab, V domains shown, Fab with 8xHis tag) VH: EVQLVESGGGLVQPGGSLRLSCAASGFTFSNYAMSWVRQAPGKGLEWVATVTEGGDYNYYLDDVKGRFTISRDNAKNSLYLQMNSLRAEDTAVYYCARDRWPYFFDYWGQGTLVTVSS VL: DIQMTQSPSSLSASVGDRVTITCRASENIYSNLAWYQQKPGKSPKLLVYGAKNLADGVPSRFSGSGSGTDYTLTISSLQPEDFATYYCQHFITTPRTFGGGTKVEIK : 8.2
